Let's look at some compounds and their measured T/C.
test system: CD2F1 mice, L1210 leukemia ip, survival T/C; assay: NCI In Vivo Anticancer Drug Screen. Data for tumor model L1210 Leukemia (intraperitoneal) in CD2F1 (CDF1) mice; conditions: endpoint: mean survival time; dose: 200.0 mg/kg/injection; schedule: Q01DX001 (ip); vehicle: saline with Tween-80; higher = longer survival
Inconclusive results and toxic doses are left out.

The examples below pair each entry with its known result.
Nc1ccc(Nc2ccc([N+](=O)[O-])cc2[N+](=O)[O-])cc1: 96 % of control
NC(=O)COc1ccc(Cl)cc1Cl: 94 % of control
O=C(Oc1ccccc1)c1ccccc1O: 89 % of control
Fc1c(F)c(F)c(-c2nnc(-c3c(F)c(F)c(F)c(F)c3F)o2)c(F)c1F: 96 % of control
CCCCn1c(C)nc2c([N+](=O)[O-])cc(C(F)(F)F)cc21: 95 % of control

Please turn your attention to the following entry.
Recorded result, "c1coc(NC2CCCCC2)n1" , T/C: 102 % of control
